Just for reference, patent US20250109139A1 is where these values come from.

Exercise: state measured log10(concentration at 0.5 h) for each of the compounds provided.
- PROTOCOL TEXT: Brain permeability test, single intraperitoneal dose in C57 male mice
- Format: in vivo
- COND: male, C57, mouse, intraperitoneal 5 mg/kg, 0.5 h, plasma, read-out: 0.5 h plasma concentration
Use the decimal logarithm of concentration at 0.5 h (ng/mL).

[Q] // log10(concentration at 0.5 h) lookup, key: COc1cccc2c3c(oc12)CN(CCCCOc1ccc2ccc(=O)[nH]c2c1)CC3
[A] 3.35

[Q] Then COc1cccc2c3c([nH]c12)CN(CC[C@H]1CC[C@H](NC(=O)N(C)C)CC1)CC3 ?
[A] 2.78

[Q] Also need COc1cccc2c1cc1n2CCN(CCCCOc2ccc3c(c2)NC(=O)CC3)C1 , thanks.
[A] 3.52

[Q] Next compound: COc1cccc2c1cc1n2CCN(CCCCOc2ccc3ccc(=O)[nH]c3c2)C1
[A] 3.61

[Q] Thanks! And COc1cccc2c1cc1n2CCN(CC[C@H]2CC[C@H](NC(=O)N(C)C)CC2)C1 ?
[A] 2.53

[Q] And what about the compound COc1cccc2c3c(oc12)CN(CC[C@H]1CC[C@H](NC(=O)N(C)C)CC1)CC3 ?
[A] 2.92
